Test system: HOP-62 NSCLC
Assay overview: NCI tumour cell line growth inhibition, 48 h
Readout name: TGI

O=Cc1ccc(-c2ccc(-c3ccc(C=O)s3)o2)s1	> 100 µM
O=P(O)(O)C(O)/C=C/c1ccccc1 (stereo not given)	> 100 µM
c1ccc(N=C2SC(=NNc3ccccc3)SC2=Nc2ccccc2)cc1	> 100 µM
Cc1c(C(=O)/C=C/c2ccc(Cl)cc2)[n+](=O)c2ccccc2n1[O-]	63.5 µM
O=c1cc(Cl)nc[nH]1	> 100 µM
O=C1CCCc2c1c1c(n2Cc2ccccc2)-c2ccccc2C1=O	50.2 µM
C(=C\c1csnn1)/c1cccnc1	> 100 µM
CC(C)C(=O)N[C@@H](C)C(=O)N(Cc1ccc2ccccc2c1)N=O	> 100 µM
CCOc1ccc2c(c1)/C(=C(\C(Cl)=C(Cl)Cl)[N+](=O)[O-])N2	> 100 µM
O=C(CCC(=O)Nc1ccc(Cl)cc1)CC(=O)c1ccc(F)cc1	> 100 µM
